B1: TOR1AIP2 (parent)
chain: DGAGRTWQDSDTVKLLVDLELSYG

Variants of: B1
Assay: protein stability index of a GFP-peptide fusion (GPS, HEK-293T) (PSI 1-6); higher = more stable;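 further: lentivirally expressed fusions sorted by FACS into six bins by GFP to DsRed ratio, PSI derived from sequencing read proportions per bin multiplied by bin number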
Conditions: c terminus: a fixed tail appended
Tag: T if measured protein stability index is not below 2, F if it is.

Some solved entries appear below for comparison.
1. E20P ... T
2. A3H ... F
3. S22C ... F
4. K14R ... F
5. D9N ... T

Proceed to the following item.
Can G2V be said to have protein stability index at or above 2?
F
